Below, each entry is listed with its recorded MIC50.
tested on: Enterococcus durans; assay: Antimicrobial activity against Enterococcus durans clinical isolate after 18 to 22 hrs by broth microdilution method; format: functional
The answer is to be given in µg/mL; state only the numeric part.

CCN1CCN(C(=O)N[C@@H](C(=O)N[C@@H]2C(=O)N3[C@@H]2SC(C)(C)[C@@H]3C(=O)O)c2ccccc2)C(=O)C1=O	4
CC(=O)NC[C@H]1CN(c2ccc(N3CCOCC3)c(F)c2)C(=O)O1	2
CN[C@H](CC(C)C)C(=O)N[C@H]1C(=O)N[C@@H](CC(N)=O)C(=O)N[C@H]2C(=O)N[C@H]3C(=O)N[C@H](C(=O)N[C@H](C(=O)O)c4cc(O)cc(O)c4-c4cc3ccc4O)[C@H](O)c3ccc(c(Cl)c3)Oc3cc2cc(c3O[C@@H]2O[C@H](CO)[C@@H](O)[C@H](O)[C@H]2O[C@H]2C[C@](C)(N)[C@H](O)[C@H](C)O2)Oc2ccc(cc2Cl)[C@H]1O	0.5

Please look at the following compound next.
What measured MIC50 goes with C[C@H]1COc2c(N3CCN(C)CC3)c(F)cc3c(=O)c(C(=O)O)cn1c23.C[C@H]1COc2c(N3CCN(C)CC3)c(F)cc3c(=O)c(C(=O)O)cn1c23.O ?
1

----------
system: Klebsiella pneumoniae; assay: Antimicrobial activity against class A extended spectrum beta-lactamase- producing Klebsiella pneumoniae clinical isolate after 18 to 22 hrs by broth microdilution method; assay type: functional
MIC90 values for the compounds below.
Form entry: value (µg/mL) — number only.

C[C@H]1COc2c(N3CCN(C)CC3)c(F)cc3c(=O)c(C(=O)O)cn1c23.C[C@H]1COc2c(N3CCN(C)CC3)c(F)cc3c(=O)c(C(=O)O)cn1c23.O	8

Please look at the following compound next.
Please look up its MIC90: C[C@@H](O)[C@H]1C(=O)N2C(C(=O)O)=C(SCCNC=N)C[C@H]12 [IMIPENEM ANHYDROUS]
0.5

----------
test system: Klebsiella oxytoca; assay: Antimicrobial activity against Klebsiella oxytoca clinical isolate after 18 to 22 hrs by broth microdilution method; type: functional
parameter: MIC50 (µg/mL)
A number alone suffices; assume µg/mL.

Example entries and their recorded answers appear below.
C[C@@H](O)[C@H]1C(=O)N2C(C(=O)O)=C(SCCNC=N)C[C@H]12 [IMIPENEM ANHYDROUS]	0.25
C[C@H]1COc2c(N3CCN(C)CC3)c(F)cc3c(=O)c(C(=O)O)cn1c23.C[C@H]1COc2c(N3CCN(C)CC3)c(F)cc3c(=O)c(C(=O)O)cn1c23.O	0.03
CCN1CCN(C(=O)N[C@@H](C(=O)N[C@@H]2C(=O)N3[C@@H]2SC(C)(C)[C@@H]3C(=O)O)c2ccccc2)C(=O)C1=O	8

Moving on to another compound below.
Query the reported MIC50 for Klebsiella oxytoca; item: CO/N=C(\C(=O)N[C@@H]1C(=O)N2C(C(=O)O)=C(CSc3nc(=O)c(O)nn3C)CS[C@H]12)c1csc(N)n1
0.06

----------
test system: Streptococcus agalactiae; assay: Antimicrobial activity against Streptococcus agalactiae clinical isolate after 18 to 22 hrs by broth microdilution method; type: functional
parameter: MIC90 (mg/L)
Report only the number, with the unit mg/L understood.

The cases that follow already have their MIC90 on record.
CCN1CCN(C(=O)N[C@@H](C(=O)N[C@@H]2C(=O)N3[C@@H]2SC(C)(C)[C@@H]3C(=O)O)c2ccccc2)C(=O)C1=O [PIPERACILLIN]	0.25
C[C@H]1COc2c(N3CCN(C)CC3)c(F)cc3c(=O)c(C(=O)O)cn1c23.C[C@H]1COc2c(N3CCN(C)CC3)c(F)cc3c(=O)c(C(=O)O)cn1c23.O [LEVOFLOXACIN]	1
CN[C@H](CC(C)C)C(=O)N[C@H]1C(=O)N[C@@H](CC(N)=O)C(=O)N[C@H]2C(=O)N[C@H]3C(=O)N[C@H](C(=O)N[C@H](C(=O)O)c4cc(O)cc(O)c4-c4cc3ccc4O)[C@H](O)c3ccc(c(Cl)c3)Oc3cc2cc(c3O[C@@H]2O[C@H](CO)[C@@H](O)[C@H](O)[C@H]2O[C@H]2C[C@](C)(N)[C@H](O)[C@H](C)O2)Oc2ccc(cc2Cl)[C@H]1O [VANCOMYCIN]	0.5

MIC90 lookup needed for CC(=O)NC[C@H]1CN(c2ccc(N3CCOCC3)c(F)c2)C(=O)O1 [LINEZOLID] , thanks.
2
